Reference source: ChEMBL document CHEMBL1255169

target: 5-hydroxytryptamine receptor 2A (Homo sapiens)
Sequence (P28223 whole entry): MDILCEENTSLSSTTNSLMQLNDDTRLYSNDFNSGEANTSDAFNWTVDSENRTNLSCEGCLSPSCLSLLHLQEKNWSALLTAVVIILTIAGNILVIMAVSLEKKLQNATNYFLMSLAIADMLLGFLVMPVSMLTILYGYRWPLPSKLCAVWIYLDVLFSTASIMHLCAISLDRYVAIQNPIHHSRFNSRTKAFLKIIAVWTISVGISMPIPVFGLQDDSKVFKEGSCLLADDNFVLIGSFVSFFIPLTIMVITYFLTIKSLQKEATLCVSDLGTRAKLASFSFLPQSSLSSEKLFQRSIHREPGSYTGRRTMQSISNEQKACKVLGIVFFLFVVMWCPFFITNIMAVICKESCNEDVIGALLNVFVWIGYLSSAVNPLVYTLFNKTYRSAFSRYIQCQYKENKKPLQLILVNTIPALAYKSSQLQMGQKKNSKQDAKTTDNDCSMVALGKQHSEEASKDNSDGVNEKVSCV
Quantity: pKi
Worth noting: pKi values are minus log10 of concentrations stated in mol/L.

Identify the reported pKi for the following entry. CCCCN1CCC(COC(=O)c2cc(Cl)c(NC)c3c2OCCO3)CC1 5.75

* * *

Record: Ki reported on Alpha-2A adrenergic receptor (Homo sapiens, UniProt P08913).
Sequence (P08913 whole entry): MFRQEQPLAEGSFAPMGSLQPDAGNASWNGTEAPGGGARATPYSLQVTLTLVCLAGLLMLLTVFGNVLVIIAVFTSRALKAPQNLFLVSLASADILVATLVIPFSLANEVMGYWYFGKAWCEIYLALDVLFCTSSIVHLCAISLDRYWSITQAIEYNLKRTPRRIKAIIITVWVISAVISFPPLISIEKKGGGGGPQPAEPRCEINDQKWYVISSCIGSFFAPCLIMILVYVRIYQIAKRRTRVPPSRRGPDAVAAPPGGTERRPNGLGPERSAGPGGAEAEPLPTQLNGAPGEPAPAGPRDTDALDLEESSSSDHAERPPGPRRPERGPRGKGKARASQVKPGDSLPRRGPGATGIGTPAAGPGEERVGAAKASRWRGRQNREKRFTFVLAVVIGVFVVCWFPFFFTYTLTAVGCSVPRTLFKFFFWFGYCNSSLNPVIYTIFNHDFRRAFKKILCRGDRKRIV

CCCCN1CCC(COC(=O)c2ccc(N)c(OC)c2)CC1 ... > 10000 nM

State recorded Ki with Alpha-2A adrenergic receptor (Homo sapiens, UniProt P08913), entry CCCCN1CCC(COC(=O)c2cc(Cl)c(NC)c3c2OCCO3)CC1 , no comment. 2240 nM

* * *

target: Muscarinic acetylcholine receptor M2 (Homo sapiens)
Sequence (P08172 whole entry): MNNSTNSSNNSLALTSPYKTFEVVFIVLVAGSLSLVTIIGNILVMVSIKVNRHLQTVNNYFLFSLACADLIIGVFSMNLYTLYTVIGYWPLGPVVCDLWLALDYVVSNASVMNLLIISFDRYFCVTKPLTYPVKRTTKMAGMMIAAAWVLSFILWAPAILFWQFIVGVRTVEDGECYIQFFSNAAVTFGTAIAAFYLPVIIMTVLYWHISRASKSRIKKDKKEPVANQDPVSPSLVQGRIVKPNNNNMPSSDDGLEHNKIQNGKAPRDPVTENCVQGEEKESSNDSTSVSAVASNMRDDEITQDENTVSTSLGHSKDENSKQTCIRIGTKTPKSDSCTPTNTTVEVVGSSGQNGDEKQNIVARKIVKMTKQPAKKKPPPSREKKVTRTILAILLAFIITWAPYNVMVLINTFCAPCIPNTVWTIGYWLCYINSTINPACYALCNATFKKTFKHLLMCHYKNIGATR
Quantity: pKi
Worth noting: pKi values are minus log10 of concentrations stated in mol/L.

State recorded pKi with Muscarinic acetylcholine receptor M2 (Homo sapiens), entry CCCCN1CCC(COC(=O)c2cc(Cl)c(NC)c3c2OCCO3)CC1 , no comment. 6.36

* * *

Molecular target: 5-hydroxytryptamine receptor 3A (Homo sapiens)
Sequence (P46098 whole entry): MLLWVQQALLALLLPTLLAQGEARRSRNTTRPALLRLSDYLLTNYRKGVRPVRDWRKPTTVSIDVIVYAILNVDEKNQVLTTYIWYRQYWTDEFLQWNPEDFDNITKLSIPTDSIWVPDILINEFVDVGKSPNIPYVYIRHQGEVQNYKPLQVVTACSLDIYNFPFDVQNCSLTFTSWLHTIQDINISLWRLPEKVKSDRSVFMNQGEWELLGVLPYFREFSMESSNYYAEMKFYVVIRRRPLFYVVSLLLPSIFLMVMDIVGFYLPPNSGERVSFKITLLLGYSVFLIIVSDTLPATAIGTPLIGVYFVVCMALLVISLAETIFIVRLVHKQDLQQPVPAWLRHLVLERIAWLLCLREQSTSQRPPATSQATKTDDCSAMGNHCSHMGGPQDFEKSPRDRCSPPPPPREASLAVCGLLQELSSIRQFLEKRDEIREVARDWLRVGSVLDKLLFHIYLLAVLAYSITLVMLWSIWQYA
Quantity: pKi
Worth noting: pKi values are minus log10 of concentrations stated in mol/L.

State recorded pKi with 5-hydroxytryptamine receptor 3A (Homo sapiens), entry CCCCN1CCC(COC(=O)c2cc(Cl)c(NC)c3c2OCCO3)CC1 , no comment. 5.97

* * *

Molecular target: 5-hydroxytryptamine receptor 1A (Homo sapiens)
Sequence (P08908 whole entry): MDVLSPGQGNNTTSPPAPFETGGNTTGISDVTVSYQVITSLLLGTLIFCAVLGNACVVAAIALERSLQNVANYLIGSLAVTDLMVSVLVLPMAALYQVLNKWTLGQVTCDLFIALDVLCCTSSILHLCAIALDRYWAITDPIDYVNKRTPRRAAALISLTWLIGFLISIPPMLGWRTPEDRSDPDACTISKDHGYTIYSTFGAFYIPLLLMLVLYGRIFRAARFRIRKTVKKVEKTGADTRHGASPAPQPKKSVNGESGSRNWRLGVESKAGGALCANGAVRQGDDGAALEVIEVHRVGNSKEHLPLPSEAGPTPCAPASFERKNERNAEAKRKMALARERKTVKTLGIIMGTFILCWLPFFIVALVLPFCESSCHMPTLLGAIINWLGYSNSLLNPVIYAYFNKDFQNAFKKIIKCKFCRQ
Quantity: Ki (nM)
Lab book: enter the figure in nM, no units written.

State recorded Ki with 5-hydroxytryptamine receptor 1A (Homo sapiens), entry CCCCN1CCC(COC(=O)c2cc(Cl)c(NC)c3c2OCCO3)CC1 , no comment. 300

* * *

Record: Ki reported on Kappa-type opioid receptor (Homo sapiens).
Sequence (P41145 whole entry): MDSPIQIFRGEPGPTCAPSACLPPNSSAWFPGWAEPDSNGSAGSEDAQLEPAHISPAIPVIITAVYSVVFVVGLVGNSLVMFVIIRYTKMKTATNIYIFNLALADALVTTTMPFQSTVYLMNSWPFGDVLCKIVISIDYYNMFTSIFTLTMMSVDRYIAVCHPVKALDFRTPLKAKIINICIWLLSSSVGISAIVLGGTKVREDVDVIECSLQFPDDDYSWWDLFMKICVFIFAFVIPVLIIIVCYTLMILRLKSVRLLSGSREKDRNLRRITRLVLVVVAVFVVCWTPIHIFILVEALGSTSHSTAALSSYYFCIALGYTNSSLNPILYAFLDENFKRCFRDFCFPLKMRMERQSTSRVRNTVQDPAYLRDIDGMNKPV

CCCCN1CCC(COC(=O)c2cc(Cl)c(NC)c3c2OCCO3)CC1 ... > 10 µM

Now look at this one.
Identify the reported Ki for the following entry. CCCCN1CCC(COC(=O)c2ccc(N)c(OC)c2)CC1 > 10 µM

* * *

target: Beta-1 adrenergic receptor (Rattus norvegicus)
Sequence (P18090 whole entry): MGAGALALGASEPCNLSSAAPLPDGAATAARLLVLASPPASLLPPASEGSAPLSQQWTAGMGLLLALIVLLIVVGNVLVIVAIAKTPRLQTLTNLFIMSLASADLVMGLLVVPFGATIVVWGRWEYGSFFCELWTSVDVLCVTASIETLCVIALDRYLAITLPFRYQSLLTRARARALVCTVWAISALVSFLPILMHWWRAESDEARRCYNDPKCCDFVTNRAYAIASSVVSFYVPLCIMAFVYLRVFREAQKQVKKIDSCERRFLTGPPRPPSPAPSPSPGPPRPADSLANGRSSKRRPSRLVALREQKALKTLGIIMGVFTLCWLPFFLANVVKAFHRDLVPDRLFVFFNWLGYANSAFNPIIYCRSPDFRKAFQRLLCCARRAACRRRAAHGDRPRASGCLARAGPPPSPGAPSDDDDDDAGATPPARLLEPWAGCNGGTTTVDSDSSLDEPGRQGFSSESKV
pKi: −log10 of the molar value.
Quantity: pKi

Identify the reported pKi for the following entry. CCCCN1CCC(COC(=O)c2cc(Cl)c(NC)c3c2OCCO3)CC1 < 5.00

* * *

In this section we review reported pKi values for a set of molecules.
target: 5-hydroxytryptamine receptor 4 (Homo sapiens); assay: Displacement of [3H]GR113808 from human recombinant 5HT4 receptor expressed in HEK293 cells
Sequence (Q13639 whole entry): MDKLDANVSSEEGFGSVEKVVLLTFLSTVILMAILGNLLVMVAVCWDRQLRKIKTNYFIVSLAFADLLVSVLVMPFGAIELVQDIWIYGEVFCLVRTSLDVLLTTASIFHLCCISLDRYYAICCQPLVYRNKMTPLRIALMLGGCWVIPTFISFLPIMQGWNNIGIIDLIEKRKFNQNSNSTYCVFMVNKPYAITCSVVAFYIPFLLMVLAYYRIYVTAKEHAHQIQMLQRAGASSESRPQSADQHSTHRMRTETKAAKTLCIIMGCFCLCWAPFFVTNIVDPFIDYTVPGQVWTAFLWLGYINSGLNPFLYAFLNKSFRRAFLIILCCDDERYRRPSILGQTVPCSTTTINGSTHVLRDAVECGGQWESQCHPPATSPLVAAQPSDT
Worth noting: pKi values are minus log10 of concentrations stated in mol/L.

Previously resolved entries follow.
CCCN1CCC(COC(=O)c2ccc(N)c(OC)c2)CC1 ... 7.77
CCCCCN1CCC(COC(=O)c2ccc(N)c(OC)c2)CC1 ... 7.92
CCCCN1CCC(COC(=O)c2cc(F)c(N)c3c2OCCO3)CC1 ... 8.68
CCCCN1CCC(COC(=O)c2ccc(N)c(OC)c2)CC1 ... 8.62
CCCCN1CCC(COC(=O)c2ccc(NC)c3c2OCCO3)CC1 ... 8.04
CCCCN1CCC(COC(=O)c2cc([N+](=O)[O-])c(N)c3c2OCCO3)CC1 ... 8.11

Identify the reported pKi for the following entry. CCCCN1CCC(COC(=O)c2cc(Cl)c(NC)c3c2OCCO3)CC1 8.70

Identify the reported pKi for the following entry. CCCCN1CCC(COC(=O)c2cc(I)c(NC)c3c2OCCO3)CC1 8.13

Identify the reported pKi for the following entry. CCCCN1CCC(COC(=O)c2cc(C)c(N)c3c2OCCO3)CC1 8.20

Identify the reported pKi for the following entry. CCCCN1CCC(COC(=O)c2cc(Br)c(NC)c3c2OCCO3)CC1 8.35
